The measured values listed here are drawn from ChEMBL document CHEMBL5370660.

Experiment: Metabolic stability in human skin S9 fraction measured upto 120 mins by LC-MS analysis
Assay type: ADME, subcellular
Each entry below carries its recorded half-life.

Observe how each entry below is paired with its result.
> print(dat)
                              line.notation    result
1  COc1ccccc1Nc1cc(Nc2ccc(CC(=O)O)cn2)ncc1C(N)=O     < 4 h
2   NC(=O)c1cnc(Nc2cccc(O)n2)cc1Nc1ccccc1Cl  > 3.33 h
3  Cc1cccc(Nc2cc(Nc3ccccc3Cl)c(C(N)=O)cn2)n1     > 4 h

From here, focus on the item given below.
Query: Quick check: half-life of NC(=O)c1cnc(Nc2ccc(CC(=O)O)cn2)cc1Nc1ccccc1Cl ?
Result: < 4 h
